Source: patent US12612360B2

# Tested On: ERα (Homo sapiens, UniProt P03372)
# Construct: host or cells: MCF7
# Sequence (P03372 whole entry): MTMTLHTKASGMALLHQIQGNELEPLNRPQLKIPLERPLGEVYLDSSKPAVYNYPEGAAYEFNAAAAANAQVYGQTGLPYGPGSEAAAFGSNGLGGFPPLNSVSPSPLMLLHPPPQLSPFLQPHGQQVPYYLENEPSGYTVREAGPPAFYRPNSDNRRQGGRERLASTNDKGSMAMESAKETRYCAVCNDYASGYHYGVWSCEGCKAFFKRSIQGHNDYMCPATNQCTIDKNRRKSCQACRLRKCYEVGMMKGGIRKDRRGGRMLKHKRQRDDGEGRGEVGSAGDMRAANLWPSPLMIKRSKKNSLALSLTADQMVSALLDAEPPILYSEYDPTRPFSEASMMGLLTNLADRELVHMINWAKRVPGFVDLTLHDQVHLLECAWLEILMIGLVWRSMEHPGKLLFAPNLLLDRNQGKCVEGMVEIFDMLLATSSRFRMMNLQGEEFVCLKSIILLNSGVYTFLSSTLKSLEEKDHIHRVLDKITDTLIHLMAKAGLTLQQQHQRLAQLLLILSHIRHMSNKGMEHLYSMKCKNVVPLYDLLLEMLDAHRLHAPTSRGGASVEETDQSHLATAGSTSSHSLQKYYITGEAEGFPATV
# Assay: Estrogen receptor degradation activity: breast cancer cell ERα in cell western assay (MCF7 cells)
# Assay type: cell-based
# Applied Conditions: 0.3 μM, 4 hours, relative to fulvestrant 0.1 μM positive control
# Procedure: Test: Estrogen Receptor Degradation Activity Said test involves measuring the in vitro degradation activity of the compounds of the Table 1a. The measurements of the degradation activities were made using a breast cancer cell ERα in cell western assay as described hereunder. […] Integrated intensities in the green fluorescence and red fluorescence were measured to determine the levels of ERα and DNA respectively. […]
Parameter: % Degradation At 0.3 μM (%)

O=C(O)c1ccc2c(c1)CCCC(c1ncc(Cl)cc1C(F)(F)F)=C2c1ccc(C=C2CN(CCC(F)F)C2)cc1 [Example 125]; 91
O=C(O)c1ccc2c(c1)CCCC(Cc1ccccc1)=C2c1ccc(C=C2CN(CCCF)C2)cc1 [Example 167]; 89
O=C(O)c1ccc2c(c1)CCCC(c1c(F)ccc3c1CCC3)=C2c1ccc(C=C2CN(CCCF)C2)cc1 [Example 6]; 92
Cc1cc(Cl)cc(C)c1C1=C(c2ccc(C=C3CN(CCCF)C3)cc2)c2ccc(C(=O)O)cc2CCC1 [Example 83]; 93
O=C(O)c1ccc2c(c1)CCCC(c1ccc(F)cc1C(F)(F)F)=C2c1ccc(C=C2CN(CCC(F)(F)F)C2)cc1 [Example 108]; 92
Cc1ccc(C2=C(c3ccc(C=C4CN(CCCF)C4)cc3)c3ccc(C(=O)O)cc3CCC2)c(F)c1 [Example 57]; 93
O=C(O)c1ccc2c(c1)CCCC(C13CCCC1C3)=C2c1ccc(C=C2CN(CCCF)C2)cc1 (stereo not shown) [Example 175]; 87

====

# Tested On: ERα (Homo sapiens)
# Construct: host or cells: MCF7
# Assay: Estrogen receptor degradation activity: breast cancer cell ERα in cell western assay (MCF7 cells)
# Type: cell-based
# Applied Conditions: 4 hours post compound addition, concentration which degrades 50% of the estrogen receptor, read-out: Degradation IC50
Parameter: DC50 (nM)

(P) Cc1cc(F)ccc1C1=C(c2ccc(C=C3CN(CCCF)C3)cc2C#N)c2ccc(C(=O)O)cc2CCC1 [Example 139]
(Q) O=C(O)c1ccc2c(c1)CCCC(c1ccc(F)c(C(F)(F)F)c1)=C2c1ccc(C=C2CN(CCCF)C2)cc1 [Example 154]
(R) O=C(O)c1ccc2c(c1)CCCC(c1c(F)cccc1Cl)=C2c1ccc(C=C2CN(CCCF)C2)cc1 [Example 42]
*Q* Sort the compounds on DC50; start with the lowest figure. Give the order by naming the labels one after another as requested.
*A* R, Q, P
(R: 0.2 nM, Q: 0.4 nM, P: 3.1 nM)

====

# Tested On: ERα (Homo sapiens, UniProt P03372)
# Construct: host or cells: MCF7
# Assay: Estrogen receptor degradation activity: breast cancer cell ERα in cell western assay (MCF7 cells)
# Format: cell-based
# Applied Conditions: 4 hours post compound addition, concentration which degrades 50% of the estrogen receptor, read-out: Degradation IC50
Parameter: DC50 (nM)

Solved entries:
O=C(O)c1ccc2c(c1)CCCC(c1ccc(F)cc1F)=C2c1ccc(C=C2CN(CCCF)C2)cc1; 0.4
Cc1cc(C2=C(c3ccc(F)cc3F)CCCc3cc(C(=O)O)ccc32)cc(F)c1C=C1CN(CCCF)C1; 0.9
O=C(O)c1ccc2c(c1)CCCC(c1ncc(Cl)cc1C(F)(F)F)=C2c1ccc(C=C2CN(CCCF)C2)cc1; 0.4
Cc1cc(F)ccc1C1=C(c2ccc(C=C3CN(CCCF)C3)cc2C(F)(F)F)c2ccc(C(=O)O)cc2CCC1; 1.8
Cc1ccc(C2=C(c3ccc(C=C4CN(CCCF)C4)cc3)c3ccc(C(=O)O)cc3CCC2)c(F)c1; 0.2

(P) O=C(O)c1ccc2c(c1)CCCC(c1cc(F)cc3c1CCC3)=C2c1ccc(C=C2CN(CCC(F)F)C2)cc1
(Q) Cc1cc(F)ccc1C1=C(c2ccc(C=C3CN(CCC(F)F)C3)cc2)c2ccc(C(=O)O)cc2CCC1
(R) Cc1ccc(C(F)(F)F)cc1C1=C(c2ccc(C=C3CN(CCCF)C3)cc2)c2ccc(C(=O)O)cc2CCC1
(S) Cc1cc(C(F)(F)F)ccc1C1=C(c2ccc(C=C3CN(CCCF)C3)cc2)c2ccc(C(=O)O)cc2CCC1
(T) Cc1ccc(C2=C(c3ccc(C=C4CN(CCCF)C4)c(F)c3)c3ccc(C(=O)O)cc3CCC2)c(F)c1
*Q* Hello, I need these entries ordered by DC50, highest reading first. Thanks! Give the order by naming the labels one after another as requested.
*A* P, R, T, S, Q
(P: 1.9 nM, R: 0.8 nM, T: 0.5 nM, S: 0.3 nM, Q: 0.2 nM)

(P) Cc1ccc(F)cc1C1=C(c2ccc(C=C3CN(CCCF)C3)cc2)c2ccc(C(=O)O)cc2CCC1
(Q) Cc1cc(C(F)(F)F)ccc1C1=C(c2ccc(C=C3CN(CCC(F)(F)F)C3)cc2)c2ccc(C(=O)O)cc2CCC1
*Q* So which one has the bigger DC50 here, P or Q ? // output: label of the selected item
*A* Q

(A) CC(C)CC1=C(c2ccc(C=C3CN(CCCF)C3)cc2)c2ccc(C(=O)O)cc2CCC1
(B) O=C(O)c1ccc2c(c1)CCCC(c1ccc(Cl)cc1Cl)=C2c1ccc(C=C2CN(CCC(F)(F)F)C2)cc1
(C) Cc1cccc(C)c1C1=C(c2ccc(C=C3CN(CCCF)C3)cc2)c2ccc(C(=O)O)cc2CCC1
*Q* // smallest DC50 at index 0, largest at the end Give the order by naming the labels one after another as requested.
*A* C, A, B
(C: 0.2 nM, A: 0.3 nM, B: 1.4 nM)
